# key: entry, value: melting point

// recorded melting point for Br.CC(C)Oc1ccc(CN2CCN(C(=O)c3cc4ccc(Oc5ccc(N(C)C(=O)c6ccc(OC(F)(F)F)cc6)cn5)cc4n3C)CC2)cc1 : 237.2 to 238.5 °C

Reported melting point ( Br.Cc1cc(Oc2ccc3cc(C(=O)N4CCN(Cc5ccc(OCC(F)(F)F)cc5)CC4)n(C)c3c2)ncc1N(C)C(=O)c1ccc(C(F)(F)F)cc1 ) = 220 to 222.5 °C

The recorded melting point for CN(C(=O)c1ccc(C(F)(F)F)cc1)c1ccc(Oc2ccc3c(c2)cc(C(=O)N2CCN(Cc4ccc(OC(F)F)cc4)CC2)n3C)nc1.O=C(O)/C=C\C(=O)O is 146 to 147 °C

Field melting point (entry Cn1c(C(=O)N2CCN(Cc3ccccn3)CC2)cc2cccc(Oc3ccc(NC(=O)c4ccc(C(F)(F)F)cc4)cn3)c21.O=C(O)C(=O)O.O=C(O)C(=O)O ) reads 121 to 123 °C

Looking up Br.Cn1c(C(=O)N2CCN(Cc3ccc(OCC(F)F)cc3)CC2)cc2cc(Oc3ccc(NC(=O)c4ccc(Cl)c(Cl)c4)cn3)ccc21 , I see its melting point listed as 241 to 245 °C

Reported melting point of Br.CC(C)Oc1ccc(CN2CCN(C(=O)c3cc4ccc(Oc5ccc(N(C)C(=O)c6ccc(C(F)(F)F)cc6Cl)cn5)cc4n3C)CC2)cc1 : 248.3 to 252.3 °C

# melting point of Br.CCOc1ccc(CN2CCN(C(=O)c3cc4cc(Oc5cc(C)c(NC(=O)c6ccc(Cl)c(Cl)c6)cn5)ccc4n3C)CC2)cc1 = 197 to 199 °C

// sample Br.CCCOc1ccc(CN2CCN(C(=O)c3cc4ccc(Oc5ccc(NS(=O)(=O)c6ccc(C(F)(F)F)cc6)cn5)cc4n3C)CC2)cc1 , its melting point was 223.7 to 224.8 °C

melting point reported for this compound CC(C)Oc1ccc(CN2CCN(C(=O)c3cc4ccc(Oc5ccc(N(C)C(=O)c6ccc(C(F)(F)F)cc6)cn5)cc4n3C)CC2)cn1.O=C(O)/C=C\C(=O)O : 156.8 to 157.4 °C

The reported melting point of the compound Br.CN(C(=O)c1ccc(OC(F)(F)F)cc1)c1ccc(Oc2ccc3cc(C(=O)N4CCN(Cc5ccc(OC(CF)CF)cc5)CC4)n(C)c3c2)nc1 was 227.5 to 230.3 °C

# melting point (compound: Br.Br.Cn1c(C(=O)N2CCN(Cc3ccccn3)CC2)cc2cc(Oc3ccc(NC(=O)c4ccc(Cl)c(Cl)c4)cn3)ccc21 ) is 231 to 233 °C (dec.)

Measured melting point, CCCOc1ccc(CN2CCN(C(=O)c3cc4ccc(Oc5ccc(N(C)S(=O)(=O)c6ccc(C)cc6)cn5)cc4n3C)CC2)cc1 : 135.9 to 136.8 °C

----------
Entries and their measured melting point follow.

For orientation, consider the following solved cases.
                                   compound     reported_value
0  Br.Cn1c(C(=O)N2CCN(Cc3cnc(-c4ccc(C(F)(F)F)cc4)s3)CC2)cc2cc(Oc3ccc(NC(=O)c4ccc(C(F)(F)F)cc4)cn3)ccc21 [Example 572]  218.9 to 220.8 °C
1  Br.CC(C)Oc1ccc(CN2CCN(C(=O)c3cc4cc(Oc5ccc(NC(=O)c6ccc(C(F)(F)F)cc6)cn5)ccc4n3C)CC2)cc1 [Example 460]  236.8 to 243.8 °C
2  CCOc1ccc(CN2CCN(C(=O)c3cc4cc(Oc5ccc(N(C)C(=O)c6ccc(Cl)c(Cl)c6)c(C)n5)ccc4n3C)CC2)cc1.O=C(O)/C=C\C(=O)O [Example 372]      131 to 132 °C
3  CCOc1ccc(CN2CCN(C(=O)c3cc4cc(Oc5ccc(N(C)C(=O)c6ccc(C(F)(F)F)cc6)cn5)ccc4n3C)CC2)cn1.O=C(O)/C=C\C(=O)O [Example 423]      149 to 151 °C
4  Br.CC(C)Oc1ccc(CN2CCN(C(=O)c3cc4ccc(Oc5ccc(NC(=O)c6ccc(Cl)c(Cl)c6)cn5)cc4n3C)CC2)c(F)c1 [Example 265]  242.5 to 246.7 °C
5  Cn1c(C(=O)N2CCN(Cc3ccc(-c4csnn4)cc3)CC2)cc2ccc(Oc3ccc(NC(=O)c4ccc(C(F)(F)F)cc4)cn3)cc21 [Example 571]    220 to 220.8 °C

Entry under test: Br.CC(C)Oc1ccc(CN2CCN(C(=O)c3cc4ccc(Oc5ccc(NC(=O)c6ccc(OC(F)(F)F)cc6)cn5)cc4n3C)CC2)cc1 [Example 251] . Its melting point was 265 to 267 °C (dec.)

melting point measured on Br.COc1ccc(CN2CCN(C(=O)c3cc4cc(Oc5ccc(NC(=O)c6ccc(C(F)(F)F)cc6Cl)cn5)ccc4n3C)CC2)cc1 [Example 231] = 239 to 241 °C
